From: patent US10253078

- target or system: T1, human GIP receptor (human, UniProt P48546 22-466)
- T1 sequence (looked up): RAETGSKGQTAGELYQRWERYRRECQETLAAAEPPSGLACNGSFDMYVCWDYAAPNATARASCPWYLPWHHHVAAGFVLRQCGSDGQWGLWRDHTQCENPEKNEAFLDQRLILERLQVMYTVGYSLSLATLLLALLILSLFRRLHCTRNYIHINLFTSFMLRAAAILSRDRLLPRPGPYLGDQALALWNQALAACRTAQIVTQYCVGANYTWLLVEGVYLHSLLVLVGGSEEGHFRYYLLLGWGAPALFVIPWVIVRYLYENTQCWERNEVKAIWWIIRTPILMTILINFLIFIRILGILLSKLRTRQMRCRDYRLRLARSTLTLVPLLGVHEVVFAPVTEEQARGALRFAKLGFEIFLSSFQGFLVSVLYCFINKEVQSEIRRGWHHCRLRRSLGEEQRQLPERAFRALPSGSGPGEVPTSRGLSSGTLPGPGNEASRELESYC
- procedure details: cell-based or functional assay
Starred links: 1 amine or outer side, 2 acyl side, 3 side chain; linkers in the order of their positions; H or OH if unused. Non-standard residues stand in square brackets, D forms with d. Groups on a side chain read outwards from the residue. *: point of attachment. C20 diacid = O=C(O)CCCCCCCCCCCCCCCCCCC(=O)*; γGlu = O=C(O)[C@H](CCC(=O)[*:2])N[*:1]; Aib = CC(C)(N)C(=O)O
EC50 hGIP R (cAMP, HEK293 cells expressing the GIP R) reference
# value in pM; strip the unit string

Solved entries (count: 6):
binder	observed value
H-Y[Aib]EGTFISDYSIELDKIAAQDFVEWLLAGPSSGAPPPSK([Peg3-Peg3-γGlu-C20 diacid])-NH2 [Compound 27]	17
H-Y[Aib]EGTFISDYSIELDKK([Peg3-Peg3-γGlu-C20 diacid])AQKEFVEWLLAAGPSSGAPPPS-NH2 [Compound 22]	7
H-Y[Aib]EGTFISDYSIELEKK([Peg3-Peg3-γGlu-C20 diacid])AAKEFVNWLLAQGPSSGAPPPS-NH2 [Compound 11]	8
H-Y[Aib]EGTFISDYSIELEKIAQRAFVEWLLAQK([Peg3-Peg3-γGlu-C20 diacid])-NH2 [Compound 14]	14
H-Y[Aib]EGTFISDYSIELDKIAQRAFIEWLLAQGPSSGAPPPSK([Peg3-Peg3-γGlu-C20 diacid])-NH2 [Compound 28]	13
YAEGTFISDYSIELDKKAQKEFVEWLLAAGPSSGAPPPS (Aib at 2; Lys 17 side chain acylated: K((19-Carboxy-nonadecanoyl)-[(Piperazine-1-yl)-acetyl]-Peg3-Peg3); C-terminal amide (-NH2)) [Compound 21]	6

Exercise: Recorded EC50 hGIP R (cAMP, HEK293 cells expressing the GIP R) for H-Y[Aib]EGTFISDYSIELDK([Peg3-Peg3-γGlu-C20 diacid])IAQRAFIEWLLAQGPSSGAPPPS-NH2 [Compound 34] , please?
Solution: 17

Exercise: Recorded EC50 hGIP R (cAMP, HEK293 cells expressing the GIP R) for YXEGTFISDYSIELDKIAAQDFIEWLLAGPSSGAPPPSK (D-Ala at 2; Lys 39 side chain acylated: K((19-Carboxy-nonadecanoyl)-[(Piperazine-1-yl)-acetyl]-Peg3-Peg3); C-terminal amide (-NH2)) [Compound 37] , please?
Solution: 6

Exercise: Recorded EC50 hGIP R (cAMP, HEK293 cells expressing the GIP R) for H-Y[Aib]EGTFISDYSIELDKK([Peg3-Peg3-γGlu-C20 diacid])AAQAFVNWLLAGPSSGAPPPS-NH2 [Compound 29] , please?
Solution: 7

Exercise: Recorded EC50 hGIP R (cAMP, HEK293 cells expressing the GIP R) for H-Y[Aib]EGTFISDYSIELEKK([Peg3-Peg3-γGlu-C20 diacid])AQRAFVEWLLAQGPSSGAPPPS-NH2 [Compound 12] , please?
Solution: 9
